# Test system: DU-145 prostate
# measurement notes: NCI tumour cell line growth inhibition, 48 h
Below: a set of entries, each annotated with reported TGI.

compound	TGI
C[C@@H](C1CC[C@H]2[C@@H]3[C@@H]4O[C@@H]4[C@@]4(O)CC=CC(=O)[C@]4(C)[C@H]3C[C@H](O)[C@]12C)[C@H]1C[C@]2(C)O[C@]2(C)C(=O)O1 (some centres undefined)	> 100 µM
Cc1ccc(S(=O)(=O)N(CC(O)COc2ccccc2)c2c(F)c(F)cc(F)c2F)cc1 (centres undefined)	> 100 µM
COc1ccc(-n2cc(-c3cc(OC)c(OC)c(OC)c3)nc2SCc2ccc(Cl)cc2)cc1OC	> 100 µM
CC(=O)N1C(C(=O)NN2CCOCC2)CSC1c1ccccc1 (centres undefined)	> 100 µM

###

# System: NCI-H23 lung
# measurement notes: NCI tumour cell line growth inhibition, 48 h
Below: a set of entries, each annotated with reported TGI.
readout: TGI (µM)

In [3]: df
Out[3]:
                                   molecule  display_unit  readout_relation  test_value
0  C=C1CC[C@@]2(C)[C@@H]([C@@H]1C)[C@H]1CC[C@@H]3[C@@]4(C)CC[C@H](O)C(C)(C)[C@@H]4CC[C@@]3(C)[C@]1(C)C[C@@H]2O            µM                 =        5.64
1                         Cc1noc2cccc(O)c12            µM                 >         100
2  CC/C=C\C[C@H]1C/C=C2/C(=O)C=C[C@H]2C/C=C\CCCC(=O)O1            µM                 =        9.92
3  CC(=O)N[C@H](C)[C@@H](O)[C@@H](C)[C@@H]1OC(=O)/C=C/C=C(C)\C=C\[C@]2(C)C[C@@H](NS(C)(=O)=O)C=C[C@@H]2/C=C(C)/C=C/[C@H]1C            µM                 >        43.5
4  CCN(CC)CC1CCCCN1CC(=O)N1c2cc(Cl)ccc2NC(=O)CC1C (stereo not given)            µM                 >         100
5  COc1ccc(/C=C2/N=C(N/N=C\C(O)C(O)C(O)CO)NC2=O)cc1 (stereo not given)            µM                 >         100
6  O=S(=O)(O)c1ccc2c(N=Nc3cccc4ccccc34)c(O)ccc2c1            µM                 >         100
7  C=C1C(=O)OC2C1CCC(=C)C1CC(O)C(=C)C12 (stereo not given)            µM                 =          34
8  Cc1ccc2c(c1)[n+](=O)c(C(=O)c1cccs1)c(C(F)(F)F)n2[O-]            µM                 =        2.59
9   COC(CNC(=O)CNC(=O)c1ccc(C(F)(F)F)cc1)OC            µM                 >         100

###

# Test system: HCC-2998 colon
# measurement notes: NCI tumour cell line growth inhibition, 48 h
Below: a set of entries, each annotated with reported GI50.
readout: GI50

>>> df
                           smiles_structure  test_value
0  Cc1cc(S(=O)(=O)/N=C(\N)Nc2cccc(O)c2)c(SCc2ccccc2)cc1Cl     32.6 µM
1  COc1ccc(-n2cc(-c3cc(OC)c(OC)c(OC)c3)nc2SCc2ccc(Cl)cc2)cc1OC    > 100 µM
2       CN(C)c1ccc(C(=S)c2ccc(N(C)C)cc2)cc1     9.66 µM
3  CC1(C)OB(c2ccc(N(CCOS(C)(=O)=O)CCOS(C)(=O)=O)cc2)OC1(C)C     15.7 µM
4  O=C(Nc1ccc(OS(=O)(=O)c2ccc(F)cc2)cc1)C12CC3CC(CC(C3)C1)C2   > 28.2 µM

###

# System: HL-60(TB) leukemia
# measurement notes: NCI tumour cell line growth inhibition, 48 h
Below: a set of entries, each annotated with reported TGI.
readout: TGI (µM)

>>> print(df.to_string())
                                   molecule  display_unit  readout_relation  test_value
0  COc1cccc(/C=N/[N-]C(=O)c2ccncc2)c1[O-].[Mn+2].[OH3+]            µM                 =        4.19
1             COc1cccc(N/C(C)=C2/CCOC2=O)c1            µM                 >          10
2                       CCCCCCCCSC(=O)NCCCC            µM                 =        41.3
3  CN(C)c1ccc(/C=C/C(=O)c2cc(C(C)(C)C)c(O)c(C(C)(C)C)c2)cc1            µM                 >        24.4
4  Cc1cc(S(=O)(=O)/N=C(\N)Nc2cccc(O)c2)c(SCc2ccccc2)cc1Cl            µM                 =        62.9
5  CN1C(=O)N(C)C2(CCN(CC(CC3OCCO3)c3ccc(F)cc3)CC2)C1=O (stereo not given)            µM                 >         100
6  OC1(c2ccccc2)CC2CCC(C1)N2CCCC(O)(c1ccccc1)c1ccccc1 (stereo not given)            µM                 >         100
7  Oc1ccc(-c2c3ccccc3c(-c3ccc(O)cc3)c3ccccc23)cc1            µM                 >         100
8  C[C@@H](Nc1nc(N[C@H](C)C(F)(F)F)nc(-c2cccc(Cl)n2)n1)C(F)(F)F            µM                 >         100
9  CC1(C)OB(c2ccc(N(CCOS(C)(=O)=O)CCOS(C)(=O)=O)cc2)OC1(C)C            µM                 =        39.3

###

Below: a set of entries, each annotated with reported TGI.
# Tested on: KM12 colon
# measurement notes: NCI tumour cell line growth inhibition, 48 h
readout: TGI

>>> print(df.to_string())
                                    compound         tgt  test_value
 0   CC(=O)Nc1ccccc1-c1nc2ccccc2nc1-c1ccccc1  KM12 colon    > 100 µM
 1  Cc1cccc(C(C)(C)C)c1NC(=O)C(C#N)C1=C(Cl)C(=O)c2ccccc2C1=O (stereo unspecified)  KM12 colon     31.3 µM
 2                     Cc1ccccc1/C=C/c1csnn1  KM12 colon    > 100 µM
 3  O=CC(OC(=O)c1ccccc1)C(OC(=O)c1ccccc1)C(COC(c1ccccc1)(c1ccccc1)c1ccccc1)OC(=O)c1ccccc1 (stereo unspecified)  KM12 colon       31 µM
 4  CCOC(=O)Oc1cc2ccsc2c2c1c1ccccc1n2C(=O)OCC  KM12 colon    > 100 µM
 5             Nc1nc(Cl)cc(NCC2(CO)CCCCC2)n1  KM12 colon    > 100 µM
 6  CN1CCN(CCCOc2cccc3nc(Nc4cc(Cl)cc(Cl)c4)ccc23)CC1  KM12 colon     3.29 µM
 7  C/C(=N\Nc1ccccc1)c1sc(-c2nc(C)c(/C(C)=N/Nc3ccccc3)s2)nc1C  KM12 colon    > 100 µM
 8  O=S(=O)(C1=CC(S(=O)(=O)c2ccccc2)COC1)c1ccccc1 (stereo unspecified)  KM12 colon    > 100 µM
 9  C[C@H]1CCC/C=C/C2CC(OC(=O)CN(C)C)CC2C(OC(=O)CN(C)C)/C=C/C(=O)O1 (stereo partly specified)  KM12 colon     1.31 µM
10  C=CCn1c(-c2cc(C(C)(C)C)c(O)c(C(C)(C)C)c2)cs/c1=N\C(P(=O)(O)O)P(=O)(O)O  KM12 colon    > 100 µM
11  COC(=O)C(=O)C(CC(=O)Nc1cc(Cl)ccc1Cl)C(=O)OC (stereo unspecified)  KM12 colon    > 100 µM
12  OC1(c2ccccc2)CC2CCC(C1)N2CCCC(O)(c1ccccc1)c1ccccc1 (stereo unspecified)  KM12 colon     30.3 µM
13            Cc1nc2cn3c(c2c(=O)[nH]1)CCCCC3  KM12 colon    > 100 µM
14  Cc1cccc2c(C3=C(c4cn(C)c5ccccc45)C(=O)NC3=O)cn(C)c12  KM12 colon     > 25 µM
15   [N-]=[N+]=CC(=O)C1(C(=O)C=[N+]=[N-])CC1  KM12 colon    > 100 µM
16  N#C/C(=C\c1ccc(O)c(O)c1)c1c(C#N)c(N)nn1-c1ccccc1  KM12 colon    > 100 µM
17  Cc1ccc(S(=O)(=O)NC(=O)C2S(=O)(=O)OCCOS2(=O)=O)cc1  KM12 colon    > 100 µM
18  CC1CC(C[N+](=O)[O-])CC2(C1)OCCO2 (stereo unspecified)  KM12 colon    > 100 µM
19        O=[N+]([O-])c1cc(Br)cc2cc(Cl)cnc12  KM12 colon    > 100 µM
20  N#C/C(=C\c1ccc(O)c(O)c1)C(=O)NCc1ccc(C(F)(F)F)cc1  KM12 colon     26.9 µM

Source listed as PubChem BioAssay (NCI).
